- TARGET_UNDER_TEST: human pancreatic α-amylase (HPA) (Homo sapiens, UniProt P04746)
- Construct: made in house; host or cells: Pichia pastoris strain GM5011
- Sequence (P04746 16-511): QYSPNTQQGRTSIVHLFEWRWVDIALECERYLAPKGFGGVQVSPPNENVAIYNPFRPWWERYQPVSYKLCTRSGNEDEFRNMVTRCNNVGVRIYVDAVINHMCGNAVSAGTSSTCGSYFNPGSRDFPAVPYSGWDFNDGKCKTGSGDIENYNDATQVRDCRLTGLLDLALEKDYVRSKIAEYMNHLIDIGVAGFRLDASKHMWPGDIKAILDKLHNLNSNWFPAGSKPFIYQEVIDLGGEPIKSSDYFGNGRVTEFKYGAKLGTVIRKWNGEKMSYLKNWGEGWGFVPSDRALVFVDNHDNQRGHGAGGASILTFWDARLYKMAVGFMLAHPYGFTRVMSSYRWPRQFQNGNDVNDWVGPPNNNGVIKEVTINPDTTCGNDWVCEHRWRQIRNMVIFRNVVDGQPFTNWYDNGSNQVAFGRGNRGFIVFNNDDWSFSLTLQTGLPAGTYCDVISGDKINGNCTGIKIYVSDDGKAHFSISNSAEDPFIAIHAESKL
- TEST: Inhibition of wild-type human pancreatic α-amylase (HPA), kinetic KI determination with CNP-G3
- Assay type: biochemical
- CONDITIONS_USED: Tables 4 and 5; read-out: Ki (HPA Inhibition)
PARAMETER_MEASURED: Ki (µM)

// worked examples, Ki included
O=C(/C=C/c1ccc(O)c(O)c1)NCCCOc1c(-c2ccc(O)c(O)c2)oc2cc(O)cc(O)c2c1=O: 145
O=C(/C=C/c1ccc(O)c(O)c1)NC[C@H]1O[C@@H](O[C@H]2[C@H](O)[C@@H](O)[C@H](Oc3c(-c4ccc(O)c(O)c4)oc4cc(O)cc(O)c4c3=O)O[C@@H]2CO)[C@H](O)[C@@H](O)[C@@H]1O: 70
O=C(/C=C/c1ccc(O)c(O)c1)N[C@@H]1[C@H](O)[C@@H](O)[C@H](O[C@H]2[C@H](O)[C@@H](O)[C@H](Oc3c(-c4ccc(O)c(O)c4)oc4cc(O)cc(O)c4c3=O)O[C@@H]2CO)O[C@@H]1CO: 45

P = O=C(/C=C/c1ccc(O)c(O)c1)NCCCCCCCOc1c(-c2ccc(O)c(O)c2)oc2cc(O)cc(O)c2c1=O
Q = O=C(/C=C/c1ccc(O)c(O)c1)NCCOCCOCCOc1c(-c2ccc(O)c(O)c2)oc2cc(O)cc(O)c2c1=O
Q: Just tell me: smaller Ki value, P or Q ? Could you answer with the label of the item you picked?
A: P
(P: 4 µM, Q: 82 µM)
